B1: glmS ribozyme (parent)
chain: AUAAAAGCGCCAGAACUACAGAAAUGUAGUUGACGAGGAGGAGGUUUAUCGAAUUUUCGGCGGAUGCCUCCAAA

# Variants of: B1
# PROTOCOL_DESCRIPTION: self-cleavage kobs at 2500 uM GlcN6P; higher = faster cleavage; RNA array
# CONDITION: with glucosamine-6-phosphate
Variants at the floor of the assay were thinned out.
READOUT_TYPE: self-cleavage kobs at 2500 uM GlcN6P (s⁻¹)
Hi! Could you send only the number? It should be in s⁻¹, unit omitted.

G66A C71G ... 0.000935
U30C U31C ... 0.00125
U57A ... 0.000175
A14C G26A ... 0.00142

Incoming: Could you share which self-cleavage kobs at 2500 uM GlcN6P value was measured for G41A C68U C70U ?
Outgoing: 0.00138

Incoming: Could you share which self-cleavage kobs at 2500 uM GlcN6P value was measured for G41C A53U ?
Outgoing: 0.000197

Incoming: Could you share which self-cleavage kobs at 2500 uM GlcN6P value was measured for U30A G38U U65G C68G ?
Outgoing: 0.000149

Incoming: Could you share which self-cleavage kobs at 2500 uM GlcN6P value was measured for G13A C50G C58A C70U ?
Outgoing: 0.000539

Incoming: Could you share which self-cleavage kobs at 2500 uM GlcN6P value was measured for G37U G66U C68G C71G ?
Outgoing: 4.28e-05

Incoming: Could you share which self-cleavage kobs at 2500 uM GlcN6P value was measured for A14G C70G ?
Outgoing: 0.0009
